# Assay name: VP16 transactivation reporter inhibitors, counter-screen for LRH-1 inverse agonist project, cell-based, luminescence, high throughput (AID 651615)
# Condition set: Gal4-VP16 luciferase reporter cells, at 3.6 µM, active compounds read high
Classification field: enter MET for inhibition values not below 20%, NOT MET for values below it.

Example entries begin here.
O=S(=O)(c1ccc(-c2csc(Nc3ccc(F)cc3)n2)cc1)N1CCCC1 = MET
O=C(NCc1ccccc1)c1cccc(NC(=O)c2ccccc2)c1 = MET
Cc1ccc(NC(=O)CSc2nnc(CNC(=O)c3ccco3)n2C)c(C)c1 = NOT MET

Identify whether the reported inhibition of the following molecule is 20% or greater: COc1cccc(C2c3cc4c(cc3OC(N3CCCC3)C2C)OCO4)c1O (stereo not given) MET

Identify whether the reported inhibition of the following molecule is 20% or greater: Cn1c(CN2CCN(c3cccc(Cl)c3)CC2)nc2ccccc21 NOT MET

----------
# Measurement target: Protein phosphatase methylesterase 1 (Homo sapiens) (UniProt Q9Y570)
# Sequence (Q9Y570 whole entry, looked up): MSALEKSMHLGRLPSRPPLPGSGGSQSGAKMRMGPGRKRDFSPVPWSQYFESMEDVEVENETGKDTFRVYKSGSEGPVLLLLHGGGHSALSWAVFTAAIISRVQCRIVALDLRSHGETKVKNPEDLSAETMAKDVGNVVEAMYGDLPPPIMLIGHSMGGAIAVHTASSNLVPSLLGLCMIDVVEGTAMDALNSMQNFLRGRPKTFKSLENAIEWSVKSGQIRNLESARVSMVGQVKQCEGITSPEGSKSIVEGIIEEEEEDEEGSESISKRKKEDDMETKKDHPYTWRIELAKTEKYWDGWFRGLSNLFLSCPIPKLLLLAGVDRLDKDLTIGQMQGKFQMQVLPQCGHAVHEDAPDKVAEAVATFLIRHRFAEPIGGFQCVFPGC
# Assay name: PME-1 inhibitor activity retest, confirmation, biochemical, fluorescence polarization, FP-Rh probe, triplicate (AID 2171);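 also: 0% = enzyme with DMSO and 100% = wells lacking PME-1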
# Condition set: recombinant PME-1, FP-Rh probe fluorescence polarization; at 5.9 µM; active compounds read high
Attribute measured: inhibition (%)
// return numeric value only (unit: %, not printed)

Use these answered entries as a reference point.
COC(=O)N1C(=O)[C@](c2ccccc2)(C2CCCCC2)N1C(=O)OC = 76.6
CCOc1cc(/C=C/c2ccc3cccc([N+](=O)[O-])c3n2)cc(Cl)c1O = -9.78
CN(c1ccccc1)S(=O)(=O)c1ccc(NC(=O)c2ccc(-c3ccccc3)cc2)cc1 = 59.7
COCCCNc1c2c3c(cccc3[nH]c1=O)C(=O)c1ccccc1-2 = 133

Then this compound:
Item O=C(c1cccs1)N1CCC(c2nc3c(nnn3Cc3ccccc3Cl)c(=O)[nH]2)CC1 : provide inhibition 25.4

----------
# Measurement target: Oxysterols receptor LXR-beta (Homo sapiens) (UniProt P55055)
# Sequence (P55055 whole entry, looked up, the tested form may be a part): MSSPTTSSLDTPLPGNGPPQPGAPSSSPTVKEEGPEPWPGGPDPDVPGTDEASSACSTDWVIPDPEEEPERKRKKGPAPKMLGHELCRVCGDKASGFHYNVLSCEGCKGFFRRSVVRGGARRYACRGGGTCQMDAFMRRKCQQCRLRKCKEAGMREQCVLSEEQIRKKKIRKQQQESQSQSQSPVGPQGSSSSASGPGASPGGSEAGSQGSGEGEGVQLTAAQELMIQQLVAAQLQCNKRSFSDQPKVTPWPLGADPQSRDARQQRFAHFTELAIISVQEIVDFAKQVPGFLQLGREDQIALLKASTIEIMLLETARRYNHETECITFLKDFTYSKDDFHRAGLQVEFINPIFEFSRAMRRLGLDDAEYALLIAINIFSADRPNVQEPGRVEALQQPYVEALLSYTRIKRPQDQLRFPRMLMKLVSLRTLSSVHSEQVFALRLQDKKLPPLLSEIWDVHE
# Assay name: LXR agonists, Gal4 luciferase reporter, confirmation, counter-screen for hcDAF-12 agonist project, cell-based, luminescence, HEK293, H. contortus campaign (AID 743027)
# Condition set: HEK293 Gal4-LXR tk-luc reporter, 24 h, at 6.8 µM, active compounds read high, normalized: DMSO 0%, positive control 100%
Some of the results follow.
Attribute measured: activation (%)
// return numeric value only (unit: %, not printed)

Use these answered entries as a reference point.
O=C(O)c1[nH]c2ccccc2c1C(c1cccc(O)c1)c1c(C(=O)O)[nH]c2ccccc12 = -0.02
c1cnc(N2CCN(c3ccc4ccccc4n3)CC2)nc1 = 0.85
O=C(Nc1ccc2c(c1)CCC2)c1ccc(Br)s1 = 2.03
O=C(Nc1ncccc1O)c1ccc(C(=O)c2ccccc2)cc1 = 1.21
COC(=O)C1=NN(c2ccccc2)C2C(=O)N(c3ccccc3OC)C(=O)C12 (stereo unspecified) = -0.15

Item O=C(NC1CCCCC1)C(c1cc2ccccc2o1)n1c(=O)c(-c2ccco2)nc2ccccc21 (stereo unspecified) : provide activation 0.03

----------
Recorded inhibition values for a group of compounds are listed next.
# Assay name: VP16 transactivation inhibitors, counter-screen for SRC1 inhibitor project, cell-based, luminescence, high throughput (AID 588824)
# Condition set: cell-based VP16 transactivation luciferase luminescence; at 3.6 µM; active compounds read high
Active and inactive are the calls of the source. Cut-off read from the data, not from the text of the source: active = inhibition above about 25%; inactive = the rest.

Use these answered entries as a reference point.
O=C1CCC2S/C(=C/Nc3ccc(C(F)(F)F)cc3)C(=O)N12 (configuration not stated) = 6.56% (inactive)
COC1C(CO)OC(n2c3c(Cl)cccc3c3c4c(c5c6cccc(Cl)c6[nH]c5c32)C(=O)NC4=O)C(O)C1O (configuration not stated) = 42.6% (active)
O=C(c1ccccc1)N1CCN(Cc2ccc3c(c2)OCO3)CC1 = 3.86% (inactive)
CCN1CCN(C(=S)c2ccc(-c3ccccc3)cc2)CC1 = 12.8% (inactive)
O=C(O)C1CCCCC1C(=O)Nc1ccc2c(c1)OCCO2 (configuration not stated) = -13.8% (inactive)
Cc1nn(-c2ccccc2)c(Cl)c1C(=O)N1CCN(c2ncnc3c2cnn3-c2ccccc2)CC1 = 44.9% (active)
O=C(CCl)N1N=C(c2cccs2)CC1c1ccco1 (configuration not stated) = 17.4% (inactive)
Cc1cc(C)nc(SCc2ccc(C(=O)N/N=C/c3cccc(O)c3O)cc2)n1 = 23.9% (inactive)
COc1ccc(/C=C2\CN(Cc3ccccc3)C/C(=C\c3ccc(OC)c(O)c3)C2=O)cc1O = 12.4% (inactive)
CSc1ncnc2c1ncn2CC(=O)C1CCC2C3CCC4=CC(=O)CCC4(C)C3CCC12C (configuration not stated) = 12.1% (inactive)

Item O=C(Nc1ccc(Oc2ccccc2)cc1)c1csc([C@@H]2O[C@H](CO)[C@@H](O)[C@H]2O)n1 : provide inhibition 19.7% (inactive)

Item COc1ccc(-c2csc3ncnc(NCCCO)c23)cc1 : provide inhibition 49.8% (active)

Item Cc1ccccc1CN1CC2=C(CCN(Cc3ccccc3)C2=O)N2CCN=C12 : provide inhibition 66.9% (active)

Item Cc1ccc(C#N)c(SCc2nnc(-c3ccc(Cl)cc3)o2)n1 : provide inhibition 28.1% (active)

Item CCCS(=O)(=O)Nc1ccc(Nc2c3ccccc3nc3ccccc23)c(OC)c1 : provide inhibition 2.6% (inactive)

Item O=C(Nc1c(-c2ccccc2)[nH][nH]c1=O)c1cccc(C(F)(F)F)c1 : provide inhibition 0.94% (inactive)

Item Cc1cc(/C=C2\SC(=S)N(C)C2=O)c(C)n1-c1ccc(O)cc1 : provide inhibition 47.5% (active)

Item Cn1c2ccccc2c(=O)c2ccc(C#CC3(O)CCCCC3)cc21 : provide inhibition -43.1% (inactive)

Item COc1ccc2[nH]c(=O)c3c(c2c1)OC(C)(C)C=C3 : provide inhibition 44% (active)

Item CC1CC2=C(CC1/C=N/NC(N)=S)C(C)(C)CCC2 (configuration not stated) : provide inhibition 33.7% (active)

Item Cc1ccc(OCC(=O)NC(=S)Nc2ccccn2)c(Br)c1 : provide inhibition -39.2% (inactive)

Item O=C(CCCN1C(=O)/C(=C/c2ccccc2Cl)SC1=S)NNC(=O)c1ccccc1Cl : provide inhibition 40.9% (active)
